FYI, the data here is from paper PMC9516332.

# experimentalSystem: panel of 255 wild-type kinases (Homo sapiens)
# Sequence (O43683 whole entry): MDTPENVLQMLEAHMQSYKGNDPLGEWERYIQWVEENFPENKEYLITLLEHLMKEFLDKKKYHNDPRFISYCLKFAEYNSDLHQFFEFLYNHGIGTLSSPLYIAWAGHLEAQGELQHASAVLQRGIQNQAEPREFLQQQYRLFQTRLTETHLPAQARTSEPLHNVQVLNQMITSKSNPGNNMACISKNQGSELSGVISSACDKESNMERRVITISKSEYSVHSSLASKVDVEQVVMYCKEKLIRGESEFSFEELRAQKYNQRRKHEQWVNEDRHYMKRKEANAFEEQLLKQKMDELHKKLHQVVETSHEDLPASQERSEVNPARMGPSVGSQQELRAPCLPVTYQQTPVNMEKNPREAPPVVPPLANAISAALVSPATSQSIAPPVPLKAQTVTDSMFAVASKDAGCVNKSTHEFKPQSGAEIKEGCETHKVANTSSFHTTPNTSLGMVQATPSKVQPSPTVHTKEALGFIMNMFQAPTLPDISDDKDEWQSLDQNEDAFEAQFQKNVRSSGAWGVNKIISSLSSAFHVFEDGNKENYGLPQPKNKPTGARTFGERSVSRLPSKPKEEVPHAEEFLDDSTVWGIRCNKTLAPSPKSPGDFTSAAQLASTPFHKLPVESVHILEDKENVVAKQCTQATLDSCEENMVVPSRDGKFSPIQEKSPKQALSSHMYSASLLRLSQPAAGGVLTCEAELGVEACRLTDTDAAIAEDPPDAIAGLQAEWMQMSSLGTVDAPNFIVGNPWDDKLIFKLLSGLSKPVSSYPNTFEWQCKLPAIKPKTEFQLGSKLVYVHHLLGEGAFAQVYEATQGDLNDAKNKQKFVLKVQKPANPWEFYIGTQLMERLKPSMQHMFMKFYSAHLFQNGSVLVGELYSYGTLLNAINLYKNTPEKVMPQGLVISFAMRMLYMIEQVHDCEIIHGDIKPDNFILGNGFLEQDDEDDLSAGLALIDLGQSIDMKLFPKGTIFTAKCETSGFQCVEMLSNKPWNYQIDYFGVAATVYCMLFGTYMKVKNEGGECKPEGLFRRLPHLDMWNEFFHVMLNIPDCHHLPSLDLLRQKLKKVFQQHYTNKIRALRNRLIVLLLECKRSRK
# assayProtocol: Kinase panel profiling at 1 µmol/L (MSA or IMAP), percentage inhibition
# Format: biochemical
# particulars: BUB1/BUB3 kinase assay; 1 µmol/L single concentration; read-out: %-inhibition BUB1/BUB3
measuredParameter: inhibition at 1 µM (%)
Your answer is read as %, so omit the unit and give the number.

Examples with their reported inhibition at 1 µM follow.
Exercise: Need inhibition at 1 µM, item "COC(=O)N[C@@H](C)CNc1nccc(-c2cn(C(C)C)nc2-c2cc(Cl)cc(NS(C)(=O)=O)c2F)n1"
Solution: 6

Exercise: // lookup inhibition at 1 µM for "C[C@H]1Oc2cc(cnc2N)-c2c(nn(C)c2C#N)CN(C)C(=O)c2ccc(F)cc21"
Solution: -5

Exercise: Dear colleague, I am looking for the recorded inhibition at 1 µM of the following compound: "O=C(Nc1cnn2ccc(N3CCC[C@@H]3c3cc(F)ccc3F)nc12)N1CC[C@H](O)C1"
Solution: -6

Exercise: Entry under review: "Cn1cnc2c(F)c(Nc3ccc(Br)cc3Cl)c(C(=O)NOCCO)cc21" . Reported inhibition at 1 µM?
Solution: -4

Exercise: I would be grateful if you could share the reported inhibition at 1 µM for "Cc1cc(Nc2ncnc3ccc(NC4=NC(C)(C)CO4)cc23)ccc1Oc1ccn2ncnc2c1" .
Solution: 0.842

New cases:
Exercise: # input compound: "Cc1nc(NC(=O)N2CCC[C@H]2C(N)=O)sc1-c1ccnc(C(C)(C)C(F)(F)F)c1" ; wanted: its inhibition at 1 µM
Solution: -4.62

Exercise: Given the compound "CCc1nc(C(N)=O)c(Nc2ccc(N3CCC(N4CCN(C)CC4)CC3)c(OC)c2)nc1NC1CCOCC1" , what is its reported inhibition at 1 µM?
Solution: 54

Exercise: Param item = "COc1cc2ncnc(Nc3ccc(F)c(Cl)c3)c2cc1NC(=O)/C=C/CN1CCCCC1" ; retrieve measured inhibition at 1 µM.
Solution: 22

====

The following compounds are listed with their measured pIC50 values.
# Tested on: 134 cancer cell lines
# assayProtocol: Cell viability assay (ATPlite, 72 hours), IC50 on cancer cell line panel
# particulars: Homo sapiens, FaDu, read-out: IC50 in cell proliferation assay
# reply with the number alone; pIC50 is -log10 of concentration in mol/L

Solved cases (2 shown):
Exercise: Reported pIC50, compound "CC#CC(=O)N1CCC[C@H]1c1nc(-c2ccc(C(=O)Nc3ccccn3)cc2)c2c(N)nccn12" : ____
Solution: 4.55

Exercise: Quick one: pIC50 of "CCn1c(=O)c(-c2cc(NC(=O)Nc3ccccc3)c(F)cc2Br)cc2cnc(NC)cc21" ?
Solution: 5.52

Proceeding to the next compound to report its pIC50.
Exercise: Need pIC50, item "C[C@@H](Oc1cc(-c2cnn(C3CCNCC3)c2)cnc1N)c1c(Cl)ccc(F)c1Cl"
Solution: 5.39

====

As shown below, each of these molecules has a reported IC50 value.
# System: 134 cancer cell lines
# assayProtocol: Cell viability assay (ATPlite, 72 hours), IC50 on cancer cell line panel
# particulars: Homo sapiens, LS174T, read-out: IC50 in cell proliferation assay, LS174T cell line

Worked examples follow.
Exercise: For the molecule "Cc1nc(NC(=O)N2CCC[C@H]2C(N)=O)sc1-c1ccnc(C(C)(C)C(F)(F)F)c1" , what IC50 is on record?
Solution: 1900 nM

Exercise: Can you look up the measured IC50 of "Cc1cc(Nc2ncc(Cl)c(Nc3ccccc3S(=O)(=O)C(C)C)n2)c(OC(C)C)cc1C1CCNCC1" for me?
Solution: 2000 nM

---
Exercise: Name the recorded IC50 for "Cn1cnc2c(F)c(Nc3ccc(Br)cc3F)c(C(=O)NOCCO)cc21" .
Solution: 70 nM

Exercise: What measured IC50 goes with "CC(C)(C)c1nc(-c2cccc(NS(=O)(=O)c3c(F)cccc3F)c2F)c(-c2ccnc(N)n2)s1" ?
Solution: > 10000 nM
